Value source: patent US20220177587A1

- test.system: human PD-L1 (human) (UniProt Q9NZQ7)
- Sequence (Q9NZQ7 19-290 limits assumed): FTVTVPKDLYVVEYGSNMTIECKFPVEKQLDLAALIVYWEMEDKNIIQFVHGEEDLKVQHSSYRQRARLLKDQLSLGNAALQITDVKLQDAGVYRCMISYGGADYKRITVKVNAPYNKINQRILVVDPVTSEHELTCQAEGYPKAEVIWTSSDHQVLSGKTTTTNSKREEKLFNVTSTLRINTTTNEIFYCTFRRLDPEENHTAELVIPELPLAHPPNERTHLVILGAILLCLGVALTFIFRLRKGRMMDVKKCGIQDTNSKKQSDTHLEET
outcome.measure: IL-2 luciferase reporter, fold increase over WT CD80-IgV-Fc at 5.0 nM (fold)

Examples with answers:
1) variant CD80 IgV-Fc E35D/M47V/V68M/L85Q/K89N (Fc fusion) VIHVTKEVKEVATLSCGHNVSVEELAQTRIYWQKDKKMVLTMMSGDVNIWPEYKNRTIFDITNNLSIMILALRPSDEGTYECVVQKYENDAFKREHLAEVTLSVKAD
7.4
2) variant CD80 IgV-Fc E35D/M47V/K89N (Fc fusion) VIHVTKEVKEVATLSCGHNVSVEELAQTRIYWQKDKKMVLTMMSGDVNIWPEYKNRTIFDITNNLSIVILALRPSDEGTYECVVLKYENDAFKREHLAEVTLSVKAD
5.8
3) variant CD80 IgV-Fc E35D/K89N (Fc fusion) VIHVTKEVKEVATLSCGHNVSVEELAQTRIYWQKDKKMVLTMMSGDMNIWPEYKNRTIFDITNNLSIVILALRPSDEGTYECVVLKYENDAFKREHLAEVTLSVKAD
2.5
4) variant CD80 IgV-Fc M47V/N48K/V68M (Fc fusion) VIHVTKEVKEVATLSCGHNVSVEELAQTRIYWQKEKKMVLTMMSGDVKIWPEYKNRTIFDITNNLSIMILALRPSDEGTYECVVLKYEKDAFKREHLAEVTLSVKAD
5.8

[I] variant CD80 IgV-Fc E35D/D46V/M47V/N48K/V68M (Fc fusion) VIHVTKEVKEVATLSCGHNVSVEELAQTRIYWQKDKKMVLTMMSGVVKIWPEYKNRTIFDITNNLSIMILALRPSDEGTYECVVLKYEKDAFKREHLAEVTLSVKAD
[II] variant CD80 IgV-Fc M47V (Fc fusion) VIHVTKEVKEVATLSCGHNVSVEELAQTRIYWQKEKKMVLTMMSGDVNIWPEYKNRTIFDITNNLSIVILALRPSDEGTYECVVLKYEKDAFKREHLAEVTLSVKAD
// query Of the two listed items, I and II , which carries the larger IL-2 luciferase reporter, fold increase over WT CD80-IgV-Fc at 5.0 nM figure? Please respond with the label that marks your chosen entry.
// result I
(I: 6.1 fold, II: 3.9 fold)
